Entry source: paper PMC13577001

Target: T1, AP2-μ2 (residues 158–435) R402A∙K405A mutant (rat, UniProt P84092 158-435, R402A | K405A)
T1 construct: also called R402A∙K405A mutant recombinant AP2-μ2; source: E. coli, purified by the same protocol as the wild-type protein
T1 sequence: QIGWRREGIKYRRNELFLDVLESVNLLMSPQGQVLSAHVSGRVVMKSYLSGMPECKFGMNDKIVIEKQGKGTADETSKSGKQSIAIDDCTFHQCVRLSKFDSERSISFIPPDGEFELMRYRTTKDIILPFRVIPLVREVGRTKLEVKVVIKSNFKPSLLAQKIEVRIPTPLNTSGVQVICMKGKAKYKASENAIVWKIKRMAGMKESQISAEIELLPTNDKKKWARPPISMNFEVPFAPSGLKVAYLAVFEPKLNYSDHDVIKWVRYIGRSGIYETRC
Assay: ITC; peptide titrated into recombinant AP2-μ2; 50 mM Tris-HCl (pH 7.5), 500 mM NaCl, 3 mM β-mercaptoethanol; in Fig. 2 peptide 0.2 mM into 10 μM AP2-μ2
Details: both partners purified
quantity: pKd
Kindly note that pKd refers to -log10 of the concentration in mol/L and answer with the value alone.

Qu. Suppose we examine the binder QPETTDLYCYEQLNDEE (source: synthetic peptide, bought: Dandicure (Korea)) [HPV16 E7(16–32; S31E∙S32E) 17-mer peptide] ; what pKd value has been reported?
Ans. 5.08
